# Measurement Notes: physchem
# Assay Setup: octan-1-ol/water, pH 7.4, LogD7.4
# maps each entry to its logD
Value Kind: logD

> print(dat)
                                 item.smiles  result.value
 1    O=C(COCc1ccncc1)N1CCC(c2ccc(Cl)cc2)CC1          2.74
 2    Fc1ccc(-c2ncn(C3CCNCC3)c2-c2ccncc2)cc1           0.3
 3  C[C@@H]1CN(c2c(F)c(N)c3c(=O)c(C(=O)O)cn(C4CC4)c3c2F)C[C@H](C)N1         -0.15
 4  Cc1cc(Nc2nc(N[C@@H](C)c3ncc(F)cn3)ncc2F)n[nH]1          1.79
 5                O=C(c1scc2c1CCCC2)N1CCCCC1          3.16
 6        Cc1cc(O)ccc1N1C(=O)c2ccc(O)cc2C1=O             2
 7  COc1ccc2c(c1)c(CC(=O)O)c(C)n2-c1ccnc2cc(Cl)ccc12          1.68
 8  COC[C@H](O)Cn1c(=O)cnn(-c2ccc(Cl)c(C(=O)NCC3(O)CCCCCC3)c2)c1=O          1.46
 9                  COc1ccc(-c2ccnc(N)n2)cc1          2.08
10  CN[C@@H](C)C(=O)N[C@H](C(=O)N[C@H]1CCCN(CCc2ccc(C(F)(F)F)cc2)C1)C(C)(C)C          2.85

###

# maps each entry to its fraction unbound at 5 h
# Measurement Notes: in vitro
# Assay Setup: human, plasma
Value Kind: fraction unbound at 5 h

> print(dat)
                                   molecule  result.value
1        C[C@]12N[C@H](Cc3ccccc31)c1ccccc12         0.529
2  COc1ccc(OC)c(C(O)CN)c1 (centres undefined)          0.78
3  CC(C)N(CCC(C(N)=O)(c1ccccc1)c1ccccn1)C(C)C (centres undefined) [DISOPYRAMIDE]         0.666
4  O=C1Nc2ccc(Cl)cc2C(c2ccccc2Cl)=NC1O (centres undefined)         0.072
5  Cn1cc(C2=C(c3cn(C4CCN(Cc5ccccn5)CC4)c4ccccc34)C(=O)NC2=O)c2ccccc21        0.0017
6  COc1ccc2c(c1O)-c1cccc3c1[C@@H](C2)N(C)CC3         0.062
7  O=C1COc2ccc(CNC3CCN(CCN4C(=O)COc5ccc(OC(F)(F)F)cc54)CC3)nc2N1        0.0209
8               O=C1Nc2ccccc2B(O)N1c1ccccc1         0.179
9  CCc1c(C(=O)C(N)=O)c2c(OCC(=O)O)cccc2n1Cc1ccccc1         0.124

###

# Measurement Notes: physchem
# Assay Setup: octan-1-ol/water, pH 7.4, LogD7.4

Compound	logD
O=C(O)COc1ccc(Cl)cc1C1CCCCC1	0.93
CC(=O)Nc1cccc(Nc2ncnc(N3CCC(OCc4ccc(OC(F)(F)F)cc4)CC3)n2)c1C	4.4
O=C(O)COc1ccc([N+](=O)[O-])cc1-c1ccccc1	-0.69
COc1ccc(-c2ccc3nc(N)sc3c2)cn1	3.2
CC(Nc1ncnc2ccccc12)c1ccccc1 (stereo not given)	3.4
O=C(CO)N1CCC(c2[nH]nc(-c3ccc(Cl)cc3)c2-c2ccncn2)CC1	1.85
CC(=O)Nc1ccccn1	0.5
COc1cc(N2CCCN(C)CC2)c2[nH]c(C(=O)Nc3ccc(N4CCOCC4)cc3)cc(=O)c2c1	2.1
O=C(c1cccc(Cc2n[nH]c(=O)c3ccccc23)c1)N1CCOCC1	1
CC(C)Cn1c(=O)n(C)c(=O)c2c(C(=O)N3CC[C@@H](O)C3)c(Cc3c[nH]c4ccccc34)sc21	2.35
CC(C)Oc1cc(-c2cccc3c(=O)cc(N4CCOCC4)oc23)ccc1NC(=O)CN1CCOCC1	3
Cn1cncc1-c1c2c(=O)n(CC3CC3)c(=O)n(CC3CC3)c2nn1Cc1ccnc2ccc(Cl)cc12	4.33
O=C(CCS(=O)(=O)c1ccc(Br)cc1)NCc1ccc(F)cc1	3.1
CCn1c(C)c(C(=O)O)c(-c2cccc(N3CCN(c4ccc(NS(=O)(=O)c5ccc(N[C@H](CCN6CCC(O)CC6)CSc6ccccc6)c(S(=O)(=O)C(F)(F)F)c5)cc4)CC3)c2)c1-c1ccc(Cl)cc1	4.2
CC(C)Cn1c(=O)n(C)c(=O)c2c(C(=O)N3CC[C@@H](O)C3)c(Cc3ccnc4ccc(F)cc34)sc21	1.95
O=S(=O)(NCC(c1ccccc1)N1CCCCCC1)c1cccc(C(F)(F)F)c1 (stereo not given)	3.12
Cc1cc(CCC2CCN(S(=O)(=O)CC3(N(O)C=O)CCOCC3)CC2)c(C)cn1	1.43
CN[C@@H](C)C(=O)N[C@H](C(=O)N[C@H]1CCCN(CCc2ccc(O)cc2)C1)C(C)(C)C	0.77
Cc1ccc(O)c(O)c1	1.37
Cc1cc(OCCCS(C)(=O)=O)cc(C)c1-c1cccc(COc2ccc3c(c2)OC[C@H]3CC(=O)O)c1	2.3
